Here, each record is paired with measured log10 IC50 data.
- TARGET SYSTEM: integrin α5β1 (human, UniProt P08648)
- Sequence (P08648 42-1049, chain 1 of 2): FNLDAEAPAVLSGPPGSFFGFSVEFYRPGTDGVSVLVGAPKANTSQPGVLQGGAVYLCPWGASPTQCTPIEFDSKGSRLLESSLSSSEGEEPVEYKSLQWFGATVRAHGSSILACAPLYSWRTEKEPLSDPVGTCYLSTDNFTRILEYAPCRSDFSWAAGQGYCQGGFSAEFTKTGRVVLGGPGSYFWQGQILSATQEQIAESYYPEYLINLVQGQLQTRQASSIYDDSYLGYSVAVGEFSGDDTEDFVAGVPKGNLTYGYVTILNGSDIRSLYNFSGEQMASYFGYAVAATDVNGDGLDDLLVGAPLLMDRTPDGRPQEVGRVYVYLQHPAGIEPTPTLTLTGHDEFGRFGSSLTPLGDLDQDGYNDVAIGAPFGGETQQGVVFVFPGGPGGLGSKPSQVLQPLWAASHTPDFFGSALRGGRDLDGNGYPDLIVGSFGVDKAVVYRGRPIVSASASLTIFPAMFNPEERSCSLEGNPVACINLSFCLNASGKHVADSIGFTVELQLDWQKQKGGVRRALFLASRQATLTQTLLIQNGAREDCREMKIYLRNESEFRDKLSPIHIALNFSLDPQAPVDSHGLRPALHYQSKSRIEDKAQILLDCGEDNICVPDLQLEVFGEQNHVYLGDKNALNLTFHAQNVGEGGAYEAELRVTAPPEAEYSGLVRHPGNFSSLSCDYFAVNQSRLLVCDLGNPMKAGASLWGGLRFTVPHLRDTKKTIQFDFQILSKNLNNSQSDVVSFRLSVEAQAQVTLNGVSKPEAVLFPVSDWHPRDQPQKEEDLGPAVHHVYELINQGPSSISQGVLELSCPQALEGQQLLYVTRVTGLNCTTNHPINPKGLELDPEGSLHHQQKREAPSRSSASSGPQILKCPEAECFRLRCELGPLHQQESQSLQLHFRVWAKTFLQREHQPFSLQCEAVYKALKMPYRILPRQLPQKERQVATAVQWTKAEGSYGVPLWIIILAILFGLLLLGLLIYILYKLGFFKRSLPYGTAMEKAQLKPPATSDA
- Sequence (chain, as listed by the source, chain 2 of 2): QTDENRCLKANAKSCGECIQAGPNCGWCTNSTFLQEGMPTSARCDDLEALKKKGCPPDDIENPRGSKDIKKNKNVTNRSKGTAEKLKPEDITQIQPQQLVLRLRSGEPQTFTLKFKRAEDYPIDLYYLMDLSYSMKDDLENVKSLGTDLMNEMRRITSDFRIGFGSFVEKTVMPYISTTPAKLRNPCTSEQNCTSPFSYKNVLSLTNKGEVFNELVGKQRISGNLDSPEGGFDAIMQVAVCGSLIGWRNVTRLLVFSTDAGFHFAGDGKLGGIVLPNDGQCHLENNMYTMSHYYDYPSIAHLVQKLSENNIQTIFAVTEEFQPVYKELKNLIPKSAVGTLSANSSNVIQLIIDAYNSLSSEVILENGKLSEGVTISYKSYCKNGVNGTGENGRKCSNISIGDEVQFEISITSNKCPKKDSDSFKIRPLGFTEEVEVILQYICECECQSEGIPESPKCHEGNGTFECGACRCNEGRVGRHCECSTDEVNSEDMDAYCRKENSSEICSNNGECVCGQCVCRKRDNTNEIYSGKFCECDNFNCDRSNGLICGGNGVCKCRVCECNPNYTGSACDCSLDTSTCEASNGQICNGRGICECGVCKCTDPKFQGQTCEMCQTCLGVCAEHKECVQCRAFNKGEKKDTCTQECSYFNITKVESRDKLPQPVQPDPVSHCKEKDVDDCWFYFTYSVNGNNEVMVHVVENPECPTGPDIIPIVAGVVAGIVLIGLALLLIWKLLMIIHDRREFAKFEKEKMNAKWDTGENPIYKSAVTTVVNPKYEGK
- ASSAY REMARKS: competition
Where no end group is shown, it is not given here. Side-chain parts run from the residue outwards. [ ]: non-standard residue; d: D form. The star is where a group is joined. BODIPY(FL) = CC1=CC(C)=[N+]2C1=Cc1ccc(CCC(=O)*)n1[B-]2(F)F; NMeK = CN[C@@H](CCCCN)C(=O)O; BDPFL = dye
Answers are given as log10 of IC50 in nM.

Recorded results for 4 binders are shown here.
BINDER	RECORDED RESULT
cyclo(RGD[dF]K) [Compound 12 (Table 3) c(RGDfK)]	2.15
RGDL[dP][NMeK]([(PEG)5-BODIPY(FL)])GL (not fully specified (bridges); also: cyclic, closure not given here) [Compound 9d (9-(PEG)5-BDPFL)]	1.98
RGDL[dP][NMeK]([Gly-Pro-Pro-Pro-Gly-BODIPY(FL)])GL (not fully specified (bridges); also: cyclic, closure not given here) [Compound 9e (9-G(P)3G-BDPFL)]	2.99
cyclo(RGDL[dP][NMeK]([Gly-Pro-Pro-Pro-Pro-Pro-Pro-Gly-BDPFL])GL) [Compound 9f (9-G(P)6G-BDPFL)]	2.89

q: What does the data say about its log10 IC50? Entry: cyclo(RGDL[dP][NMeK](BDPFL)GL) [Compound 9a (9-BDPFL)]
a: 3.17

Provenance of the data: patent US20200087347
